- Tested on: SK-MEL-28 melanoma
- test-method-notes: NCI-60 one-dose screen, 48 h
- measurement-setup: 10 µM unless noted
This is part of a sample that, as a whole, favours compounds with a hit. Of some 83,000 tested, about 20% had one in any assay. Activity calls are given as the source filed them. The calls were made as follows: active = growth percent below 10; inactive = the rest.
Outcome codes: active, inactive

- compound: "NC(=O)c1cccc(N2Cc3ccccc3OC3=C2C(=O)c2c(O)ccc(O)c2C3=O)c1"
  subject-of-test: "SK-MEL-28 melanoma"
  class-label: "active"
- compound: "NC(N)=NC(N)=Nc1ccccc1-c1ccccc1"
  subject-of-test: "SK-MEL-28 melanoma"
  class-label: "inactive"
- compound: "CC/C=C\\C[C@H]1C/C=C2/C(=O)C(Cl)=C[C@@H]2C/C=C\\CCCC(=O)O1"
  subject-of-test: "SK-MEL-28 melanoma"
  class-label: "active"
- compound: "COc1ccc(/C=C(\\C#N)c2ccc([N+](=O)[O-])cc2)c2ccccc12"
  subject-of-test: "SK-MEL-28 melanoma"
  class-label: "inactive"
- compound: "COc1ccc(NC(=O)CSc2nc3ccccc3c(=O)n2Cc2cc(OC)c(OC)c(OC)c2)cc1"
  subject-of-test: "SK-MEL-28 melanoma"
  class-label: "inactive"
- compound: "COc1cc(CNC(=O)CCSc2nc3ccccc3c(=O)n2Cc2cc(OC)c(OC)c(OC)c2)cc(OC)c1OC"
  subject-of-test: "SK-MEL-28 melanoma"
  class-label: "inactive"
- compound: "CC/C=C\\C/C=C\\C[C@H](O)C/C=C1/C(=O)C=C[C@H]1C/C=C\\CCC(=O)OC"
  subject-of-test: "SK-MEL-28 melanoma"
  class-label: "inactive"
- compound: "O=C(Nc1ccc(Br)c(Cl)c1)c1cc(F)ccc1O"
  subject-of-test: "SK-MEL-28 melanoma"
  class-label: "active"
- compound: "COc1ccc(Cn2c(SC)nc(=O)n(Cc3ccc(Cl)cc3)c2=O)cc1"
  subject-of-test: "SK-MEL-28 melanoma"
  class-label: "inactive"
- compound: "NC(=O)c1c(NC(=O)c2ccc(OCC3CCCO3)cc2)sc2c1CCCC2 (stereo not given)"
  subject-of-test: "SK-MEL-28 melanoma"
  class-label: "inactive"
